Experiment: Acute toxicity in ICR mouse assessed as survival rate at 200 mg/kg, ip measured after 14 days relative to control
Format: organism-based
Details: in vivo, time 14 day
measured-parameter: survival at 336 h (%)
Answer in %, number only, no unit symbol.

QUERY: Reported survival at 336 h, compound COc1cc(-n2cnc3ccc(-c4ccc(C)c(N)c4)nc32)cc(OC)c1OC : ____
RESULT: 40

###

Test: Oral bioavailability in mouse at 15 mg/kg measured upto 24 hrs by LC-MS/MS analysis
Type: ADME, organism-based
Settings: in vivo
measured-parameter: bioavailability (%)
Answer in %, number only, no unit symbol.

QUERY: Reported bioavailability, molecule COc1cc(-n2cnc3ccc(-c4ccc(C)c(N)c4)nc32)cc(OC)c1OC : ____
RESULT: 40

###

Assay: Acute toxicity in ICR mouse assessed as survival rate at 100 mg/kg, ip measured after 14 days relative to control
Assay type: organism-based
Conditions: in vivo, time 14 day
measured-parameter: survival at 336 h (%)
Answer in %, number only, no unit symbol.

QUERY: Reported survival at 336 h, compound COc1cc(-n2cnc3ccc(-c4ccc(C)c(N)c4)nc32)cc(OC)c1OC : ____
RESULT: 80

###

Assay: Resistance index, ratio of IC50 for antiproliferative activity against human A549/Taxol cells to IC50 for antiproliferative activity against human A549 cells
Type: functional
Collected Ratio IC50 values appear next to each entry.

Worked set:
CC[C@]1(O)C[C@H]2CN(CCc3c([nH]c4ccccc34)[C@@](C(=O)OC)(c3cc4c(cc3OC)N(C=O)[C@H]3[C@@](O)(C(=O)OC)[C@H](OC(C)=O)[C@]5(CC)C=CCN6CC[C@]43[C@@H]65)C2)C1 [VINCRISTINE]: >10
CC(=O)O[C@@]12CO[C@@H]1C[C@H](O)[C@@]1(C)C(=O)[C@H](O)C3=C(C)[C@@H](OC(=O)[C@H](O)[C@@H](NC(=O)OC(C)(C)C)c4ccccc4)C[C@@](O)([C@@H](OC(=O)c4ccccc4)[C@H]21)C3(C)C [DOCETAXEL ANHYDROUS]: >10

Continue with the molecule presented below.
QUERY: Reported Ratio IC50, molecule COc1cc2c(c(OC)c1OC)-c1ccc(OC)c(=O)cc1[C@@H](NC(C)=O)CC2 [COLCHICINE] : ____
RESULT: >10

Source of measurements: ChEMBL document CHEMBL5523751
